- subjectOfTest: Glutamate NMDA receptor
- methodDescription: Tested for in vitro binding affinity against NMDA receptor by using [3H]-CGP- 39653 as radioligand in rat forebrain membranes
- Format: cell membranes, Membrane
quantity: IC50 (nM)
Number only, in nM; omit the unit.

Exercise: Please give the measured IC50 for this compound: NC(/C=C(\CCCCCCNC(=O)c1ccccc1)CP(=O)(O)O)C(=O)O (stereo unspecified)
Key: 106

----------
- subjectOfTest: Glutamate NMDA receptor
- methodDescription: Tested for in vitro binding affinity against NMDA receptor by using [3H]-CGP- 39653 as radioligand in rat forebrain membranes.
- Type: cell membranes
Recorded pIC50 values for a group of compounds are listed next.
Remember, pIC50 is on a log scale: it is -log10 of the molar concentration.

{"compound": "NCCCCCC/C(=C\\C(N)C(=O)O)CP(=O)(O)O (centres undefined)", "pIC50": 7.38}
{"compound": "[N-]=[N+]=Nc1ccc(C(=O)NCCCCCC/C(=C\\C(N)C(=O)O)CP(=O)(O)O)c(O)c1 (centres undefined)", "pIC50": 7.44}
{"compound": "[N-]=[N+]=Nc1ccc(C(=O)NCCCCCC/C(=C\\C(N)C(=O)O)CP(=O)(O)O)c(O)c1I (centres undefined)", "pIC50": 7.47}

Exercise: Please give the measured pIC50 for this compound: [N-]=[N+]=Nc1ccc(C(=O)NCCCCCC/C(=C\C(N)C(=O)O)CP(=O)(O)O)cc1 (centres undefined)
Key: 7.42
